measurementTarget: SSTR2 (Homo sapiens, UniProt P30874)
Sequence (P30874 whole entry): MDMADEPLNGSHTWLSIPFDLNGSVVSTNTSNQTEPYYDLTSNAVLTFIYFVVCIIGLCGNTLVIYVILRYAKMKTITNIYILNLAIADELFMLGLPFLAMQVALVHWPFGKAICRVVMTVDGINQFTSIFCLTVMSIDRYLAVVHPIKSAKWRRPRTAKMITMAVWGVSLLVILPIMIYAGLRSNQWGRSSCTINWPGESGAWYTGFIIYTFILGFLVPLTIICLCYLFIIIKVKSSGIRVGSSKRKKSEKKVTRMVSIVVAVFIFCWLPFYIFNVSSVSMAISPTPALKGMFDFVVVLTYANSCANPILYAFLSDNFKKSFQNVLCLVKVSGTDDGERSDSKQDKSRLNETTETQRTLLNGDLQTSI
assay: SSTR binding affinity by radioligand binding competition assay ([125I]-Tyr11-Somatostatin, membrane extracts)
measurementParameters: radioligand competition, [125I]-Tyr11-Somatostatin 0.1 nM, membrane extracts; Ki from IC50 by Cheng Prusoff; read-out: SSTR2 Ki
Numbered stars: 1 amine (or outer) side, 2 acyl side, 3 side chain; on linkers, the order of the positions; unused ones are H or OH. Square brackets hold non-standard residues; d marks the D form. Peptide text beside a SMILES is read from it. * marks the point of attachment. DOTA(Lu)NH(CH2)6NHCOCH2 = O=C(CN1CCN2CCN3CCN(CC1)CC(=O)[O][Lu]([O]C(=O)C2)[O]C(=O)C3)NCCCCCCNC(=O)C*; DOTA(Lu) = O=C1CN2CCN3CCN(CC(=O)*)CCN(CC2)CC(=O)[O][Lu]([O]1)[O]C(=O)C3; Ala(piperidin-4-yl) = O=C([C@H](CC1CCN([*:3])CC1)N[*:1])[*:2]; dTrp(5-Cl) = N[C@H](Cc1c[nH]c2ccc(Cl)cc12)C(=O)O; X13 = NCCCCN(N[*:1])C(=O)[*:2]; NMehCys = CN[C@@H](CCS)C(=O)O; NMeK = CN[C@@H](CCCCN)C(=O)O
valueKind: Ki

{"columns": ["compound", "observed"],
 "data": [
  ["C[C@@H](O)[C@@H]1NC(=O)[C@H](CCCCN)NC(=O)[C@@H](Cc2c[nH]c3ccccc23)NC(=O)[C@H](Cc2ccc(O)cc2)NC(=O)[C@H](CCCSCC(=O)NCCCCCNC(=O)CN2CCN3CCN4CCN(CC2)CC(=O)[O][Lu]([O]C(=O)C3)[O]C(=O)C4)N(C)C(=O)[C@H](Cc2ccccc2)NC1=O", "< 1 nM"],
  ["C[C@@H](O)[C@@H]1NC(=O)[C@H](CC2CCNCC2)NC(=O)[C@@H](Cc2c[nH]c3ccc(Cl)cc23)NC(=O)[C@H](Cc2ccc(O)cc2)NC(=O)[C@H](CCSCC(=O)NCCCCCCNC(=O)CN2CCN3CCN4CCN(CC2)CC(=O)[O][Lu]([O]C(=O)C3)[O]C(=O)C4)N(C)C(=O)[C@H](Cc2ccccc2)NC1=O [RB-0006075] (cyclo(F[NMehCys](DOTA(Lu)NH(CH2)6NHCOCH2)Y[dTrp(5-Cl)][Ala(piperidin-4-yl)]T))", "1 to 3.33 nM"],
  ["C[C@@H](O)[C@@H]1NC(=O)N(CCCCN)NC(=O)[C@@H](Cc2c[nH]c3ccccc23)NC(=O)[C@H](Cc2ccc(O)cc2)NC(=O)[C@H](CCCCNC(=O)CN2CCN3CCN4CCN(CC2)CC(=O)[O][Lu]([O]C(=O)C3)[O]C(=O)C4)N(C)C(=O)[C@H](Cc2ccccc2)NC1=O [RB-0006217] (cyclo(F[NMeK](DOTA(Lu))Y[dW][X13]T))", "< 1 nM"]
]}

* * *

measurementTarget: UniProt:P30874
assay: SSTR binding affinity by radioligand binding competition assay ([125I]-Tyr11-Somatostatin, membrane extracts)
measurementParameters: SSTR2 Ki, radioligand competition, [125I]-Tyr11-Somatostatin 0.1 nM, membrane extracts; Ki from IC50 by Cheng Prusoff
Square brackets hold non-standard residues; d marks the D form. Side chains are listed from the residue outwards. Peptide text beside a SMILES is read from it. * marks the point of attachment. DOTA(Lu)NH(CH2)6NHCOCH2 = O=C(CN1CCN2CCN3CCN(CC1)CC(=O)[O][Lu]([O]C(=O)C2)[O]C(=O)C3)NCCCCCCNC(=O)C*; DOTA(Lu) = O=C1CN2CCN3CCN(CC(=O)*)CCN(CC2)CC(=O)[O][Lu]([O]1)[O]C(=O)C3; Ala(piperazin-1-yl) = N[C@@H](CN1CCNCC1)C(=O)O; NMehCys = CN[C@@H](CCS)C(=O)O; NMeK = CN[C@@H](CCCCN)C(=O)O; Ahx = NCCCCCC(=O)O
Item-by-item account of Ki
valueKind: Ki

{"columns": ["compound", "observed"],
 "data": [
  ["C[C@@H](O)[C@@H]1NC(=O)[C@H](CCCCN)NC(=O)[C@@H](Cc2c[nH]c3ccccc23)NC(=O)[C@H](Cc2ccc(O)cc2)NC(=O)[C@H](CCSCC(=O)NCCCCCCNC(=O)CN2CCN3CCN4CCN(CC2)CC(=O)[O][Lu]([O]C(=O)C3)[O]C(=O)C4)N(C)C(=O)[C@H](Cc2ccccc2)NC1=O [RB-0003149]", "< 1 nM"],
  ["C[C@@H](O)[C@@H]1NC(=O)[C@H](CCCCN)NC(=O)[C@@H](Cc2c[nH]c3ccccc23)NC(=O)[C@H](Cc2ccc(O)cc2)NC(=O)[C@H](CSCC(=O)NCCCCCCNC(=O)CN2CCN3CCN4CCN(CC2)CC(=O)[O][Lu]([O]C(=O)C3)[O]C(=O)C4)N(C)C(=O)[C@H](Cc2ccccc2)NC1=O [RB-0003164]", "1 to 3.33 nM"],
  ["C[C@@H](O)[C@@H]1NC(=O)[C@H](CN2CCNCC2)NC(=O)[C@@H](Cc2c[nH]c3ccccc23)NC(=O)[C@H](Cc2ccc(O)cc2)NC(=O)[C@H](CCSCC(=O)NCCCCCCNC(=O)CN2CCN3CCN4CCN(CC2)CC(=O)[O][Lu]([O]C(=O)C3)[O]C(=O)C4)N(C)C(=O)[C@H](Cc2ccccc2)NC1=O [RB-0005805] (cyclo(F[NMehCys](DOTA(Lu)NH(CH2)6NHCOCH2)Y[dW][Ala(piperazin-1-yl)]T))", "< 1 nM"],
  ["CC(C)[C@@H]1NC(=O)[C@H](CCCCN)NC(=O)[C@@H](Cc2c[nH]c3ccccc23)NC(=O)[C@H](Cc2ccc(O)cc2)NC(=O)[C@H](CCCCNC(=O)CCCCCNC(=O)CN2CCN3CCN4CCN(CC2)CC(=O)[O][Lu]([O]C(=O)C3)[O]C(=O)C4)N(C)C(=O)[C@H](Cc2ccccc2)NC1=O [RB-0002670] (cyclo(F[NMeK]([Ahx-DOTA(Lu)])Y[dW]KV))", "< 1 nM"],
  ["C[C@@H](O)[C@@H]1NC(=O)[C@H](CCCCN)NC(=O)[C@@H](Cc2c[nH]c3ccccc23)NC(=O)[C@H](Cc2ccc(O)cc2)NC(=O)[C@H](CCCCNC(=O)CN2CCN3CCN4CCN(CC2)CC(=O)[O][Lu]([O]C(=O)C3)[O]C(=O)C4)N(C)C(=O)[C@H](Cc2ccccc2)NC1=O [RB-0003292]", "< 1 nM"]
]}

* * *

measurementTarget: SSTR2 (Homo sapiens)
assay: SSTR binding affinity by radioligand binding competition assay ([125I]-Tyr11-Somatostatin, membrane extracts)
measurementParameters: radioligand competition, [125I]-Tyr11-Somatostatin 0.1 nM, membrane extracts; Ki from IC50 by Cheng Prusoff; read-out: SSTR2 Ki
pKi: −log10 of the molar value. Numbered stars: 1 amine (or outer) side, 2 acyl side, 3 side chain; on linkers, the order of the positions; unused ones are H or OH. Square brackets hold non-standard residues; d marks the D form. Side chains are listed from the residue outwards. Peptide text beside a SMILES is read from it. * marks the point of attachment. DOTA(Lu)NH(CH2)6NHCOCH2 = O=C(CN1CCN2CCN3CCN(CC1)CC(=O)[O][Lu]([O]C(=O)C2)[O]C(=O)C3)NCCCCCCNC(=O)C*; DOTA(Lu) = O=C1CN2CCN3CCN(CC(=O)*)CCN(CC2)CC(=O)[O][Lu]([O]1)[O]C(=O)C3; Ala(piperidin-4-yl) = O=C([C@H](CC1CCN([*:3])CC1)N[*:1])[*:2]; dTrp(βS-Me) = C[C@@H](c1c[nH]c2ccccc12)[C@@H](N)C(=O)O; βMeTrp(2S,3R) = C[C@H](c1c[nH]c2ccccc12)[C@H](N)C(=O)O; dNMeW = CN[C@H](Cc1c[nH]c2ccccc12)C(=O)O; Dip = N[C@H](C(=O)O)C(c1ccccc1)c1ccccc1; NMehCys = CN[C@@H](CCS)C(=O)O; NMeK = CN[C@@H](CCCCN)C(=O)O; NMeDap = CN[C@@H](CN)C(=O)O; Ahx = NCCCCCC(=O)O
Item-by-item account of pKi

{"columns": ["compound", "pKi"],
 "data": [
  ["C[C@@H](O)[C@@H]1NC(=O)[C@H](CCCCN)NC(=O)[C@@H](Cc2c[nH]c3ccccc23)NC(=O)[C@H](Cc2ccc(O)cc2)NC(=O)[C@H](CNC(=O)[C@@H](CC(=O)O)NC(=O)CCCCCNC(=O)CN2CCN3CCN4CCN(CC2)CC(=O)[O][Lu]([O]C(=O)C3)[O]C(=O)C4)N(C)C(=O)[C@H](Cc2ccccc2)NC1=O", "8.48 to 9.00"],
  ["CC(C)[C@@H]1NC(=O)[C@H](CCCCN)NC(=O)[C@@H](Cc2c[nH]c3ccccc23)NC(=O)[C@H](C(c2ccccc2)c2ccccc2)NC(=O)[C@H](CCSCC(=O)NCCCCCCNC(=O)CN2CCN3CCN4CCN(CC2)CC(=O)[O][Lu]([O]C(=O)C3)[O]C(=O)C4)N(C)C(=O)[C@H](Cc2ccccc2)NC1=O [RB-0004613] (cyclo([Dip][dW]KVF[NMehCys](DOTA(Lu)NH(CH2)6NHCOCH2)))", "> 9.00"],
  ["C[C@H](c1c[nH]c2ccccc12)[C@@H]1NC(=O)[C@H](Cc2ccc(O)cc2)NC(=O)[C@H](CCCCNC(=O)CN2CCN3CCN4CCN(CC2)CC(=O)[O][Lu]([O]C(=O)C3)[O]C(=O)C4)N(C)C(=O)[C@H](Cc2ccccc2)NC(=O)[C@H]([C@@H](C)O)NC(=O)[C@H](CC2CCNCC2)NC1=O [RB-0006069] (cyclo(F[NMeK](DOTA(Lu))Y[βMeTrp(2S,3R)][Ala(piperidin-4-yl)]T))", "8.00 to 8.48"],
  ["C[C@@H](O)[C@@H]1NC(=O)[C@H](CC2CCNCC2)NC(=O)[C@@H]([C@@H](C)c2c[nH]c3ccccc23)NC(=O)[C@H](Cc2ccc(O)cc2)NC(=O)[C@H](CNC(=O)[C@H](CC(=O)O)NC(=O)CCCCCNC(=O)CN2CCN3CCN4CCN(CC2)CC(=O)[O][Lu]([O]C(=O)C3)[O]C(=O)C4)N(C)C(=O)[C@H](Cc2ccccc2)NC1=O [RB-0006158] (cyclo(F[NMeDap]([Asp-Ahx-DOTA(Lu)])Y[dTrp(βS-Me)][Ala(piperidin-4-yl)]T))", "8.48 to 9.00"],
  ["C[C@@H](O)[C@@H]1NC(=O)[C@H](CCCCN)NC(=O)[C@@H](Cc2c[nH]c3ccccc23)N(C)C(=O)[C@H](Cc2ccc(O)cc2)NC(=O)[C@H](CCSCC(=O)NCCCCCCNC(=O)CN2CCN3CCN4CCN(CC2)CC(=O)[O][Lu]([O]C(=O)C3)[O]C(=O)C4)N(C)C(=O)[C@H](Cc2ccccc2)NC1=O [RB-0005330] (cyclo(F[NMehCys](DOTA(Lu)NH(CH2)6NHCOCH2)Y[dNMeW]KT))", "> 9.00"]
]}
